Hello, the source for this data is ChEMBL document CHEMBL5385944, in case you need it.

MIC reference
System: Pseudomonas aeruginosa
Experiment: Antibacterial activity against Pseudomonas aeruginosa ATCC 10104 assessed as reduction in bacterial growth by CLSI protocol based method
Type: functional
reportedEndpoint: MIC

# compound, reportedEndpoint, result
rows = [
    ("CC(=O)Nc1ccc(S(=O)(=O)N/N=C/c2c(O)ccc3ccc(=O)oc23)cc1", "MIC", "512 µg/mL"),
    ("O=c1ccc2ccc(O)c(/C=N/NS(=O)(=O)c3cccc4c3OCC4)c2o1", "MIC", "512 µg/mL"),
    ("COC(=O)N/N=C/c1c(O)ccc2ccc(=O)oc12", "MIC", "512 µg/mL"),
    ("O=C(N/N=C/c1c(O)ccc2ccc(=O)oc12)c1ccccc1", "MIC", "1 µg/mL"),
    ("O=C(N/N=C/c1c(O)ccc2ccc(=O)oc12)c1ccc(F)cc1", "MIC", "128 µg/mL"),
    ("O=c1ccc2ccc(O)c(/C=N/NS(=O)(=O)c3ccc(Cl)cc3)c2o1", "MIC", "512 µg/mL"),
    ("CCn1cc(C(=O)O)c(=O)c2cc(F)c(N3CCNCC3)cc21 [NORFLOXACIN]", "MIC", "5 µg/mL"),
    ("Cc1cc(NS(=O)(=O)c2ccc(N/N=C/c3c(O)ccc4ccc(=O)oc34)cc2)no1", "MIC", "256 µg/mL"),
    ("O=C(N/N=C/c1c(O)ccc2ccc(=O)oc12)c1ccc(Cl)cc1", "MIC", "32 µg/mL"),
    ("N=C(N)N/N=C/c1c(O)ccc2ccc(=O)oc12", "MIC", "512 µg/mL"),
    ("O=C(N/N=C/c1c(O)ccc2ccc(=O)oc12)c1ccc(O)cc1", "MIC", "512 µg/mL"),
    ("O=C(N/N=C/c1c(O)ccc2ccc(=O)oc12)c1ccc([N+](=O)[O-])cc1", "MIC", "512 µg/mL"),
    ("O=c1ccc2ccc(O)c(/C=N/NS(=O)(=O)c3ccccc3)c2o1", "MIC", "512 µg/mL"),
    ("Cc1ccc(S(=O)(=O)N/N=C/c2c(O)ccc3ccc(=O)oc23)cc1", "MIC", "512 µg/mL"),
    ("N/N=C/c1c(O)ccc2ccc(=O)oc12", "MIC", "512 µg/mL"),
    ("O=c1ccc2ccc(O)c(/C=N/Nc3ccc(S(=O)(=O)Nc4nccs4)cc3)c2o1", "MIC", "512 µg/mL"),
    ("Cc1ncc([N+](=O)[O-])n1CC(=O)N/N=C/c1c(O)ccc2ccc(=O)oc12", "MIC", "64 µg/mL"),
    ("Nc1ncc(C(=O)N/N=C/c2c(O)ccc3ccc(=O)oc23)s1", "MIC", "2 µg/mL"),
    ("O=c1ccc2ccc(O)c(/C=N/NS(=O)(=O)c3cccc4ccccc34)c2o1", "MIC", "128 µg/mL"),
    ("O=c1ccc2ccc(O)c(/C=N/NS(=O)(=O)Cc3ccccc3)c2o1", "MIC", "512 µg/mL"),
    ("O=C(N/N=C/c1c(O)ccc2ccc(=O)oc12)c1ccncc1", "MIC", "16 µg/mL"),
    ("Nc1ccc(C(=O)N/N=C/c2c(O)ccc3ccc(=O)oc23)cc1", "MIC", "512 µg/mL"),
]

###

System: Klebsiella pneumoniae
Test: Antibacterial activity against Klebsiella pneumoniae assessed as reduction in bacterial growth by CLSI protocol based method
Format: functional
reportedEndpoint: MIC (µg/mL)

# structureSmilesString, quantitativeReadout
data = [
    ("O=c1ccc2ccc(O)c(/C=N/NS(=O)(=O)c3ccccc3)c2o1", 2),
    ("O=C(N/N=C/c1c(O)ccc2ccc(=O)oc12)c1ccc([N+](=O)[O-])cc1", 512),
    ("Cc1cc(NS(=O)(=O)c2ccc(N/N=C/c3c(O)ccc4ccc(=O)oc34)cc2)no1", 256),
    ("O=C(N/N=C/c1c(O)ccc2ccc(=O)oc12)c1ccc(F)cc1", 256),
    ("O=c1ccc2ccc(O)c(/C=N/Nc3ccc(S(=O)(=O)Nc4nccs4)cc3)c2o1", 512),
    ("O=c1ccc2ccc(O)c(/C=N/NS(=O)(=O)Cc3ccccc3)c2o1", 512),
    ("N/N=C/c1c(O)ccc2ccc(=O)oc12", 128),
    ("Nc1ncc(C(=O)N/N=C/c2c(O)ccc3ccc(=O)oc23)s1", 8),
    ("Cc1ncc([N+](=O)[O-])n1CC(=O)N/N=C/c1c(O)ccc2ccc(=O)oc12", 256),
    ("Nc1ccc(C(=O)N/N=C/c2c(O)ccc3ccc(=O)oc23)cc1", 256),
    ("O=c1ccc2ccc(O)c(/C=N/NS(=O)(=O)c3cccc4ccccc34)c2o1", 512),
    ("O=C(N/N=C/c1c(O)ccc2ccc(=O)oc12)c1ccncc1", 2),
    ("O=C(N/N=C/c1c(O)ccc2ccc(=O)oc12)c1ccccc1", 32),
    ("O=C(N/N=C/c1c(O)ccc2ccc(=O)oc12)c1ccc(Cl)cc1", 256),
    ("O=C(N/N=C/c1c(O)ccc2ccc(=O)oc12)c1ccc(O)cc1", 256),
    ("COC(=O)N/N=C/c1c(O)ccc2ccc(=O)oc12", 128),
    ("CCn1cc(C(=O)O)c(=O)c2cc(F)c(N3CCNCC3)cc21", 4),
    ("N=C(N)N/N=C/c1c(O)ccc2ccc(=O)oc12", 512),
    ("O=c1ccc2ccc(O)c(/C=N/NS(=O)(=O)c3ccc(Cl)cc3)c2o1", 256),
    ("CC(=O)Nc1ccc(S(=O)(=O)N/N=C/c2c(O)ccc3ccc(=O)oc23)cc1", 512),
    ("Cc1ccc(S(=O)(=O)N/N=C/c2c(O)ccc3ccc(=O)oc23)cc1", 512),
    ("O=c1ccc2ccc(O)c(/C=N/NS(=O)(=O)c3cccc4c3OCC4)c2o1", 512),
]

###

Tested on: Staphylococcus aureus
Assay: Antibacterial activity against Staphylococcus aureus ATCC 25923 assessed as reduction in bacterial growth by CLSI protocol based method
Type: functional

# molecule, quantityUnit, MIC
records = [
    ("N=C(N)N/N=C/c1c(O)ccc2ccc(=O)oc12", "µg/mL", 512),
    ("Cc1cc(NS(=O)(=O)c2ccc(N/N=C/c3c(O)ccc4ccc(=O)oc34)cc2)no1", "µg/mL", 256),
    ("N/N=C/c1c(O)ccc2ccc(=O)oc12", "µg/mL", 16),
    ("O=c1ccc2ccc(O)c(/C=N/NS(=O)(=O)Cc3ccccc3)c2o1", "µg/mL", 38),
    ("O=c1ccc2ccc(O)c(/C=N/NS(=O)(=O)c3cccc4c3OCC4)c2o1", "µg/mL", 512),
    ("CC(=O)Nc1ccc(S(=O)(=O)N/N=C/c2c(O)ccc3ccc(=O)oc23)cc1", "µg/mL", 512),
    ("Nc1ncc(C(=O)N/N=C/c2c(O)ccc3ccc(=O)oc23)s1", "µg/mL", 1),
    ("O=c1ccc2ccc(O)c(/C=N/NS(=O)(=O)c3ccc(Cl)cc3)c2o1", "µg/mL", 512),
    ("O=C(N/N=C/c1c(O)ccc2ccc(=O)oc12)c1ccc([N+](=O)[O-])cc1", "µg/mL", 512),
    ("O=c1ccc2ccc(O)c(/C=N/Nc3ccc(S(=O)(=O)Nc4nccs4)cc3)c2o1", "µg/mL", 256),
    ("CCn1cc(C(=O)O)c(=O)c2cc(F)c(N3CCNCC3)cc21 [NORFLOXACIN]", "µg/mL", 2),
    ("O=C(N/N=C/c1c(O)ccc2ccc(=O)oc12)c1ccc(O)cc1", "µg/mL", 512),
    ("Cc1ncc([N+](=O)[O-])n1CC(=O)N/N=C/c1c(O)ccc2ccc(=O)oc12", "µg/mL", 4),
    ("O=C(N/N=C/c1c(O)ccc2ccc(=O)oc12)c1ccc(Cl)cc1", "µg/mL", 256),
    ("O=C(N/N=C/c1c(O)ccc2ccc(=O)oc12)c1ccccc1", "µg/mL", 2),
    ("O=C(N/N=C/c1c(O)ccc2ccc(=O)oc12)c1ccc(F)cc1", "µg/mL", 256),
    ("COC(=O)N/N=C/c1c(O)ccc2ccc(=O)oc12", "µg/mL", 64),
    ("Nc1ccc(C(=O)N/N=C/c2c(O)ccc3ccc(=O)oc23)cc1", "µg/mL", 512),
    ("O=c1ccc2ccc(O)c(/C=N/NS(=O)(=O)c3ccccc3)c2o1", "µg/mL", 512),
    ("O=c1ccc2ccc(O)c(/C=N/NS(=O)(=O)c3cccc4ccccc34)c2o1", "µg/mL", 512),
    ("O=C(N/N=C/c1c(O)ccc2ccc(=O)oc12)c1ccncc1", "µg/mL", 16),
    ("Cc1ccc(S(=O)(=O)N/N=C/c2c(O)ccc3ccc(=O)oc23)cc1", "µg/mL", 512),
]
